# SYSTEM_UNDER_TEST: human melanocortin 1 receptor (human, UniProt Q01726 1-317)
# Sequence (Q01726 whole entry): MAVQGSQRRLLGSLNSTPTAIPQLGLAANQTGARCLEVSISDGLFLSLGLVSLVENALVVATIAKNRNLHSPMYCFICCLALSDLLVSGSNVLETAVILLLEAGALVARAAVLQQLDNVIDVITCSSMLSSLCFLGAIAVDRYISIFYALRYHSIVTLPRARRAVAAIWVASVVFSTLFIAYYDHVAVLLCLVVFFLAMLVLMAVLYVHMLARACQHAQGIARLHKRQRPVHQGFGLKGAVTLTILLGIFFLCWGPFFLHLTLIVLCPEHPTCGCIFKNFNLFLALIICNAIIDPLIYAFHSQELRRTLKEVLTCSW
# PROCEDURE_DETAILS: cell-based or functional assay
Positions of bridges follow the written chain, without caps; N, C: chain ends. Non-standard residues stand in square brackets, D forms with d. Hyp = O=C(O)[C@@H]1C[C@@H](O)CN1; Cit = NC(=O)NCCC[C@H](N)C(=O)O; Orn = NCCC[C@H](N)C(=O)O; Thz = O=C(O)[C@@H]1CSCN1; Api = NC1(C(=O)O)CCNCC1
Kindly supply the reported MC1R cAMP EC50 values for the records listed here.
Number in nM, nothing else.

Measured MC1R cAMP EC50 of cyclo(CVH[dF]RWCVH[dF]RW) (disulfide 1-7; SMILES CC(C)[C@@H]1NC(=O)[C@@H]2CSSC[C@H](NC(=O)[C@H](Cc3c[nH]c4ccccc34)NC(=O)[C@H](CCCNC(=N)N)NC(=O)[C@@H](Cc3ccccc3)NC(=O)[C@H](Cc3c[nH]cn3)NC1=O)C(=O)N[C@@H](C(C)C)C(=O)N[C@@H](Cc1c[nH]cn1)C(=O)N[C@H](Cc1ccccc1)C(=O)N[C@@H](CCCNC(=N)N)C(=O)N[C@@H](Cc1c[nH]c3ccccc13)C(=O)N2, also called c[c[Cys-Val-His-D-Phe-Arg-Trp-Cys]-Val-His-D-Phe-Arg-Trp]) [Chem. 36] : 1.05

CXHFXWCXHFXW (Aib 2, 8; D-Phe 4, 10; Cit 5, 11; disulphide Cys1-Cys7; head-to-tail amide Cys1-Trp12) [Chem. 41] yielded MC1R cAMP EC50 of 137

binder cyclo(CRH[dF][Cit]WCRH[dF][Cit]W) (disulfide 1-7; SMILES N=C(N)NCCC[C@@H]1NC(=O)[C@@H]2CSSC[C@H](NC(=O)[C@H](Cc3c[nH]c4ccccc34)NC(=O)[C@H](CCCNC(N)=O)NC(=O)[C@@H](Cc3ccccc3)NC(=O)[C@H](Cc3c[nH]cn3)NC1=O)C(=O)N[C@@H](CCCNC(=N)N)C(=O)N[C@@H](Cc1c[nH]cn1)C(=O)N[C@H](Cc1ccccc1)C(=O)N[C@@H](CCCNC(N)=O)C(=O)N[C@@H](Cc1c[nH]c3ccccc13)C(=O)N2, also called c[c[Cys-Arg-His-D-Phe-Cit-Trp-Cys]-Arg-His-D-Phe-Cit-Trp]) [Chem. 54] , MC1R cAMP EC50 observed: 0.29

Value of MC1R cAMP EC50 reported for the binder cyclo(C[Api]H[dF]HWC[Api]H[dF]HW) (disulfide 1-7; SMILES O=C1N[C@H]2CSSC[C@H](NC(=O)[C@H](Cc3c[nH]c4ccccc34)NC(=O)[C@H](Cc3c[nH]cn3)NC(=O)[C@@H](Cc3ccccc3)NC(=O)[C@H](Cc3c[nH]cn3)NC(=O)C3(CCNCC3)NC2=O)C(=O)NC2(CCNCC2)C(=O)N[C@@H](Cc2c[nH]cn2)C(=O)N[C@H](Cc2ccccc2)C(=O)N[C@@H](Cc2c[nH]cn2)C(=O)N[C@H]1Cc1c[nH]c2ccccc12, also called c[c[Cys-ACP-His-D-Phe-His-Trp-Cys]-ACP-His-D-Phe-His-Trp]) [Chem. 50] is 66.2

Per the records, this binder ( cyclo(C[dK]H[dF]HWCAKKKW) (disulfide 1-7; SMILES C[C@@H]1NC(=O)[C@@H]2CSSC[C@H](NC(=O)[C@H](Cc3c[nH]c4ccccc34)NC(=O)[C@H](CCCCN)NC(=O)[C@H](CCCCN)NC(=O)[C@H](CCCCN)NC1=O)C(=O)N[C@H](CCCCN)C(=O)N[C@@H](Cc1c[nH]cn1)C(=O)N[C@H](Cc1ccccc1)C(=O)N[C@@H](Cc1c[nH]cn1)C(=O)N[C@@H](Cc1c[nH]c3ccccc13)C(=O)N2, also called c[c[Cys-D-Lys-His-D-Phe-His-Trp-Cys]-Ala-Lys-Lys-Lys-Trp]) [Chem. 84] ) has MC1R cAMP EC50 equal to 43.4

Measured MC1R cAMP EC50, cyclo(C[Hyp]H[dF]RWC[Hyp]H[dF]RW) (disulfide 1-7; SMILES N=C(N)NCCC[C@@H]1NC(=O)[C@@H](Cc2ccccc2)NC(=O)[C@H](Cc2c[nH]cn2)NC(=O)[C@@H]2C[C@@H](O)CN2C(=O)[C@@H]2CSSC[C@H](NC(=O)[C@H](Cc3c[nH]c4ccccc34)NC1=O)C(=O)N1C[C@H](O)C[C@H]1C(=O)N[C@@H](Cc1c[nH]cn1)C(=O)N[C@H](Cc1ccccc1)C(=O)N[C@@H](CCCNC(=N)N)C(=O)N[C@@H](Cc1c[nH]c3ccccc13)C(=O)N2, also called c[c[Cys-Hyp-His-D-Phe-Arg-Trp-Cys]-Hyp-His-D-Phe-Arg-Trp]) [Chem. 32] : 1.98

The recorded MC1R cAMP EC50 for entry cyclo(C[Hyp]H[dF]HWCAKKKW) (disulfide 1-7; SMILES C[C@@H]1NC(=O)[C@@H]2CSSC[C@H](NC(=O)[C@H](Cc3c[nH]c4ccccc34)NC(=O)[C@H](CCCCN)NC(=O)[C@H](CCCCN)NC(=O)[C@H](CCCCN)NC1=O)C(=O)N1C[C@H](O)C[C@H]1C(=O)N[C@@H](Cc1c[nH]cn1)C(=O)N[C@H](Cc1ccccc1)C(=O)N[C@@H](Cc1c[nH]cn1)C(=O)N[C@@H](Cc1c[nH]c3ccccc13)C(=O)N2, also called c[c[Cys-Hyp-His-D-Phe-His-Trp-Cys]-Ala-Lys-Lys-Lys-Trp]) [Chem. 70] equals 75.7

The binder listed as cyclo(C[Thz]H[dF]HWCK[Orn]AAW) (disulfide 1-7; SMILES C[C@@H]1NC(=O)[C@H](C)NC(=O)[C@H](CCCN)NC(=O)[C@H](CCCCN)NC(=O)[C@@H]2CSSC[C@H](NC(=O)[C@H](Cc3c[nH]c4ccccc34)NC1=O)C(=O)N1CSC[C@H]1C(=O)N[C@@H](Cc1c[nH]cn1)C(=O)N[C@H](Cc1ccccc1)C(=O)N[C@@H](Cc1c[nH]cn1)C(=O)N[C@@H](Cc1c[nH]c3ccccc13)C(=O)N2) [Chem. 115] shows MC1R cAMP EC50 equal to 134
